These measurements were taken from paper PMC7826789.

Tested on: SIK;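 note: KINOMEscan scanMAX binding as percent activity remaining versus control; lower means stronger binding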
Construct: gene SIK1
MEASUREMENT_CONDITIONS: Compound Concentration (nM):1000
Record form. Attribute: Percent Control. Fill in for each entry.
Answers are plain numbers, in %.

>  <COMPOUND>
CC1=C(C(=O)Nc2ccc3[nH]ncc3c2)C(c2ccc(Cl)c(Cl)c2)CC(=O)N1 (stereo not shown) [GSK299115A]

>  <TARGET_SYSTEM>
SIK;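 note: KINOMEscan scanMAX binding as percent activity remaining versus control; lower means stronger binding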

>  <UNITS_SYMBOL>
%

>  <Percent Control>
97

$$$$

Return reported Percent Control values for all items listed beneath this line.
1. O=C1Nc2ccc(C(=O)c3ccco3)cc2C1=Cc1cc(Cl)c(O)c(Cl)c1 [GW406108X]
2. COc1cc(C)c(N(C)C(=O)CN(C)C)cc1Nc1nc(Nc2cccc(F)c2C(N)=O)c2cc[nH]c2n1
3. O=C(Nc1n[nH]c2nc(-c3ccc(O)cc3)c(Br)cc12)C1CC1

Reply |
1: 93; 2: 100; 3: 100
